test system: Acinetobacter baumannii; assay: Antibacterial activity against Carbapenem-resistant Acinetobacter baumannii clinical isolate incubated for 16 to 24 hrs by CLSI based broth microdilution method; type: functional; conditions: time 16-24 hrs

[
  {
    "Cpd smiles": "CC(C)C[C@H](C(=O)N[C@H]1C(=O)N[C@@H](CC(N)=O)C(=O)N[C@H]2C(=O)N[C@H]3C(=O)N[C@H](C(=O)N[C@H](C(=O)O)c4cc(O)cc(O)c4-c4cc3ccc4O)[C@H](O)c3ccc(c(Cl)c3)Oc3cc2cc(c3O[C@@H]2O[C@H](CO)[C@@H](O)[C@H](O)[C@H]2O[C@H]2C[C@](C)(N)[C@H](O)[C@H](C)O2)Oc2ccc(cc2Cl)[C@H]1O)N(C)Cc1ccc(-c2ccc(CCNC(=N)N)cc2)cc1",
    "Test system": "Acinetobacter baumannii",
    "MIC": "> 128 µg/mL"
  },
  {
    "Cpd smiles": "CC(C)C[C@@H](N)C(=O)N[C@H]1C(=O)N[C@@H](CC(N)=O)C(=O)N[C@H]2C(=O)N[C@H]3C(=O)N[C@H](C(=O)N[C@H](C(=O)NCc4ccc(-c5ccc(CCN)cc5)cc4)c4cc(O)cc(O)c4-c4cc3ccc4O)[C@H](O)c3ccc(c(Cl)c3)Oc3cc2cc(c3O[C@@H]2O[C@H](CO)[C@@H](O)[C@H](O)[C@H]2O[C@H]2C[C@](C)(N)[C@H](O)[C@H](C)O2)Oc2ccc(cc2Cl)[C@H]1O",
    "Test system": "Acinetobacter baumannii",
    "MIC": "> 128 µg/mL"
  },
  {
    "Cpd smiles": "CC(C)C[C@@H](N)C(=O)N[C@H]1C(=O)N[C@@H](CC(N)=O)C(=O)N[C@H]2C(=O)N[C@H]3C(=O)N[C@H](C(=O)N[C@H](C(=O)O)c4cc(O)cc(O)c4-c4cc3ccc4O)[C@H](O)c3ccc(c(Cl)c3)Oc3cc2cc(c3O[C@@H]2O[C@H](CO)[C@@H](O)[C@H](O)[C@H]2O[C@H]2C[C@](C)(N)[C@H](O)[C@H](C)O2)Oc2ccc(cc2Cl)[C@H]1O",
    "Test system": "Acinetobacter baumannii",
    "MIC": "> 128 µg/mL"
  }
]
